Hey, just so you know, these numbers are from patent EP4763839A1.

Kindly supply the reported pIC50 values for the records listed here.
tested on: IL-6; test: Inhibition of R848-induced IL-6 release in human PBMCs, IL-6 ELISA; assay type: cell-based; conditions: PBMC, compound 24 hours, then R848 10 µg/mL 5 hours
pIC50: −log10 of the molar value.

MOLECULE | pIC50
NC(=O)c1nn(-c2ccc(N3CCN(CC4CCN(c5ccc6c(c5)CN(C5CCC(=O)NC5=O)C6=O)CC4(F)F)CC3)cc2)cc1NC(=O)c1cccc(C(F)(F)F)n1 (centres unmarked) [Compound A170] | > 8.00
COc1ccc(C(=O)N2CCC(CCN3CCN(c4ccc(-n5cc(NC(=O)c6cccc(C(F)(F)F)n6)c(C(N)=O)n5)cc4)CC3)CC2)cc1N1CCC(=O)NC1=O [Compound A144] | > 8.00
NC(=O)c1nn(-c2ccc(N3CCC(NCC4CCN(c5ccc6c(c5)C(=O)N(C5CCC(=O)NC5=O)C6=O)C4)CC3)cc2)cc1NC(=O)c1cccc(C(F)(F)F)n1 (centres unmarked) [Compound A228] | > 8.00
Cn1c(=O)n(C2CCC(=O)NC2=O)c2ccc(N3CCC(CN4CCN(c5ccc(-n6cc(NC(=O)c7cccc(C(F)(F)F)n7)c(C(N)=O)n6)cc5)CC4)CC3)cc21 (centres unmarked) [Compound A177] | > 8.00

# context switch: different molecule, same pIC50
// pIC50 lookup, molecule = NC(=O)c1nn(-c2ccc(CN3CCC4(CC3)CCN(c3ccc5c(c3)C(=O)N(C3CCC(=O)NC3=O)C5=O)CC4)cc2)cc1NC(=O)c1cccc(C(F)(F)F)n1 (centres unmarked) [Compound A222] , result: 7.52 to 8.00
